Entries annotated with measured pKi
Biological target: PKC delta kinase (Homo sapiens)
Sequence (Q05655 whole entry): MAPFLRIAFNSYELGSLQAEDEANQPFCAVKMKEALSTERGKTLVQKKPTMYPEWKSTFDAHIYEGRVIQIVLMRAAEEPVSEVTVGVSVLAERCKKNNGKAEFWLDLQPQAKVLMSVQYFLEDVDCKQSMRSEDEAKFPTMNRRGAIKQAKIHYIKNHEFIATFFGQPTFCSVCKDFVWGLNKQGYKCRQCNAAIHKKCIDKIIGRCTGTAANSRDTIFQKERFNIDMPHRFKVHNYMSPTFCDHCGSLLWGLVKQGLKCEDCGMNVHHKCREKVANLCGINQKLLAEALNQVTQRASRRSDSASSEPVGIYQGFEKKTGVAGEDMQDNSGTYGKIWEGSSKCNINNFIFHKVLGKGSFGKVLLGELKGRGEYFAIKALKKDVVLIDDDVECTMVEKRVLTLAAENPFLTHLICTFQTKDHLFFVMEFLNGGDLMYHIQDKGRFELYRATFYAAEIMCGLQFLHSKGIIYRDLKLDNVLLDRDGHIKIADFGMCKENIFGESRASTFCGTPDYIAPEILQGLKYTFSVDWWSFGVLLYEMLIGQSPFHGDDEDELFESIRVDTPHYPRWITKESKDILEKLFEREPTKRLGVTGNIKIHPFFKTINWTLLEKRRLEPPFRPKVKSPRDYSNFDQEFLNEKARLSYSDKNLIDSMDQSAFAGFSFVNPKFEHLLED
Assay: PKC delta coupled-enzyme (NADH consumption) kinase assay
Settings: 46 nM PKC delta, 150 μM ATP, 30° C., initial rate at 340 nm
Description: An assay buffer solution was prepared which consisted of 100 mM HEPES (pH 7.5), 10 mM MgCl2, 25 mM NaCl, 0.1 mM EDTA and 0.01% Brij. […] To 16 μL of this enzyme buffer, in a 384 well plate, was added 1 μL of VRT stock solution in DMSO. […] Initial rate data was determined from the rate of change of absorbance at 340 nm (corresponding to stoichiometric consumption of NADH) using a Molecular Devices Spectramax plate reader (Sunnyvale, Calif.) over 15 mins at 30° C. […]
pKi: −log10 of the molar value.

Please review the entries below; each comes with its answer.
>  <molecule>
CC1(C)CC1(O)C1CN(c2nc(-c3n[nH]c4ncccc34)c(F)cc2F)CCN1 (centres unmarked) [Compound 2]

>  <attributeMeasured>
pKi

>  <recordedResult>
> 8.00

$$$$
>  <molecule>
CC(O)(CC(F)(F)F)C1CN(c2nc(-c3n[nH]c4ncccc34)c(F)cc2F)CCN1 (centres unmarked) [Compound 15]

>  <attributeMeasured>
pKi

>  <recordedResult>
> 7.30

$$$$
>  <molecule>
CC(C)(F)C(C)(O)C1CN(c2nc(-c3n[nH]c4ncccc34)c(F)cc2F)CCN1 (centres unmarked) [Compound 11]

>  <attributeMeasured>
pKi

>  <recordedResult>
> 8.00

$$$$

CC(C)(O)[C@@](C)(O)[C@@H]1CN(c2nc(-c3n[nH]c4ncccc34)c(F)cc2F)CCN1 [Compound 41] on PKC delta kinase (Homo sapiens) gives pKi = > 6.30

# lookup: CC(C)[C@@](C)(O)C1CN(c2nc(-c3n[nH]c4ncccc34)c(C#N)cc2F)CCN1 (some centres unmarked) [Compound 34] on PKC delta kinase (Homo sapiens), pKi = < 5.90

PKC delta kinase (Homo sapiens) pKi of CC(C)C(N)[C@H]1CCN(c2nc(-c3n[nH]c4ncccc34)c(F)cc2Cl)C1 (some centres unmarked) [Compound 24] is > 6.30

Summary: COCC(C)(O)C1CN(c2nc(-c3n[nH]c4ncccc34)c(F)cc2Cl)CCN1 (centres unmarked) [Compound 33] , PKC delta kinase (Homo sapiens), pKi = > 6.30

Readout pKi for CC(CO)[C@@](C)(O)[C@@H]1CN(c2nc(-c3n[nH]c4ncccc34)c(F)cc2F)CCN1 (some centres unmarked) [Compound 39] , test system PKC delta kinase (Homo sapiens), was > 6.30
